Cited source: ChEMBL document CHEMBL1122969

# testDetails: Protective index is the ratio of TD50 to that of ED50
# Assay type: ADME
# experimentalContext: read-out: Protective index
Listed here are compounds together with their documented selectivity ratio.
assayReadout: selectivity ratio

compound=O=C(O)C1(C(=O)O)CCC2(CCCCCC2)C1 val=1.4
compound="O=C(O)C1CCC2(CCCCCC2)C1 (configuration not stated)" val=2.3

---

# testDetails: Phase II qualification against neurotoxicity administered subcutaneously was reported.
# Type: toxicity, organism-based
# experimentalContext: mouse, in vivo, sc
assayReadout: TD50 (mg/kg)

compound="O=C(O)C1CCC2(CCCCCC2)C1 (configuration not stated)" assayreadout=TD50 resultunits=mg/kg val=193
compound=O=C(O)C1(C(=O)O)CCC2(CCCCCC2)C1 assayreadout=TD50 resultunits=mg/kg val=275

---

# Tested on: Mus musculus
# testDetails: Anticonvulsant activity against neurologic toxicity test at dose 600 mg/kg at 4 hr
# Format: organism-based
# Set-up: dose 600 mg/kg
# experimentalContext: in vivo
assayReadout: No. toxicity/tested

molecule="O=C(O)C1CCC2(CCCCC2)C1 (stereo unspecified)" assayreadout="No. toxicity/tested" val=0
molecule=O=C(O)C1(C(=O)O)CCC2(CCCCCC2)C1 assayreadout="No. toxicity/tested" val=2
molecule="O=C(O)CC1CCC2(CCCCCC2)C1 (stereo unspecified)" assayreadout="No. toxicity/tested" val=0
molecule=O=C(O)C1(C(=O)O)CCC2(CCCCC2)C1 assayreadout="No. toxicity/tested" val=2
molecule="O=C(O)C1CCC2(CCCCCC2)C1 (stereo unspecified)" assayreadout="No. toxicity/tested" val=1
molecule="O=C([O-])C1CCC2(CCCCCC2)C1.[Na+] (stereo unspecified)" assayreadout="No. toxicity/tested" val=2

---

# System: Mus musculus
# testDetails: Anticonvulsant activity against neurologic toxicity test at dose 600 mg/kg at 0.5 hr
# Assay type: organism-based
# Parameters: dose 600 mg/kg
# experimentalContext: in vivo
Item-by-item account of No. toxicity/tested
assayReadout: No. toxicity/tested

molecule="O=C(O)C1CCC2(CCCCCC2)C1 (stereo unspecified)" val=4
molecule="O=C([O-])C1CCC2(CCCCCC2)C1.[Na+] (stereo unspecified)" val=4
molecule="O=C(O)CC1CCC2(CCCCCC2)C1 (stereo unspecified)" val=4
molecule=O=C(O)C1(C(=O)O)CCC2(CCCCCC2)C1 val=3
molecule=O=C(O)C1(C(=O)O)CCC2(CCCCC2)C1 val=0
molecule="O=C(O)C1CCC2(CCCCC2)C1 (stereo unspecified)" val=4

---

# testDetails: Phase V qualification against neurotoxicity administered subcutaneously at a dose (3.2 mg/kg) was reported.
# Type: toxicity, organism-based
# experimentalContext: mouse, in vivo, sc
assayReadout: TD50 (mg/kg)

molecule="O=C(O)C1CCC2(CCCCCC2)C1 (stereo unspecified)" assayreadout=TD50 val=193
